# Tested on: IGROV1 ovarian
# measurement_description: NCI-60 one-dose screen, 48 h (100 = growth as untreated, 0 = no growth, -100 = all killed)
# details: 10 µM unless noted
About 83,000 compounds went through this panel and 20% of them were active in at least one assay; those are over-represented in the sample as a whole.
Outcome: label 1 for growth of at least 80%; label 0 for anything lower.

compound=O=C1C2=C(C(=O)c3c(O)ccc(O)c31)N(c1ccc(N3CCOCC3)nc1)Cc1ccccc1O2 class_label="label 0"
compound="O=C1OCC2=C1C(c1cccc(Br)c1)c1cc3c(cc1N2CCO)OCCO3 (stereo not drawn)" class_label="label 0"
compound="COc1ccc2[nH]cc(C(c3ccc(Cl)cc3)N3CCCC3)c2c1 (stereo not drawn)" class_label="label 1"
compound=CCCCCCCCCCCCCCCc1cc(O)ccc1[N+](=O)[O-] class_label="label 0"
compound=CC(=O)c1cccc(Nc2ncnc3ccc(NC(=O)c4ccco4)cc23)c1 class_label="label 1"

Data request: Could you please find out whether CC1CN(CCCOC(=O)Nc2ccc(Cl)cc2)CCN1C(C)(C)C (stereo not drawn) has growth that meets 80% or exceeds it?
Data returned: label 1

Data request: Could you please find out whether Nc1nc(N)c2c(n1)NC(c1sc(Cl)nc1Cl)CC(c1ccc3c(c1)OCO3)=N2 (stereo not drawn) has growth that meets 80% or exceeds it?
Data returned: label 0

Data request: Could you please find out whether O=C(Nc1ccc(Br)cc1)Nc1ccccc1Cl has growth that meets 80% or exceeds it?
Data returned: label 0

Data request: Could you please find out whether C=C(CN1CC=CCC1)[C@@H]1CC[C@]2(C(=O)OC)CC[C@]3(C)[C@H](CC[C@@H]4[C@@]5(C)CC[C@H](OC(C)=O)C(C)(C)[C@@H]5CC[C@]43C)[C@@H]12 has growth that meets 80% or exceeds it?
Data returned: label 1

Data request: Could you please find out whether N#Cc1nc(-c2ccc(Cl)cc2)cc(-c2ccc(Nc3nc(N4CCCCC4)nc(N4CCCCC4)n3)cc2)c1N has growth that meets 80% or exceeds it?
Data returned: label 1

Data request: Could you please find out whether CC(=O)N1N=C(c2ccc(C)cc2)CC1c1cn(-c2ccccc2)nc1-c1cccc(Nc2ccnc3cc(Cl)ccc23)c1 (stereo not drawn) has growth that meets 80% or exceeds it?
Data returned: label 0

Data request: Could you please find out whether CC1=C(O)C(=O)C(c2c(C)cc(C)c(Br)c2C)=C(O)C1=O has growth that meets 80% or exceeds it?
Data returned: label 0
